Entries and their IC50
Assay Remarks: in vitro
Recorded Conditions: dog, CPE Inhibition IC50 (cytotoxic), Influenza A (H3N2) test
Readout Kind: IC50 (µg/mL)

compound=O=c1cc(-c2ccc(Oc3c(O)cc4oc(-c5ccc(O)cc5)cc(=O)c4c3O)cc2)oc2cc(O)cc(O)c12 readout_kind=IC50 value_units=µg/mL data_value=1.3
compound="O=C1CC(c2ccc(O)cc2)Oc2cc(O)c(-c3c(O)cc4c(c3O)C(=O)CC(c3ccc(O)cc3)O4)c(O)c21 (stereo not drawn)" readout_kind=IC50 value_units=µg/mL data_value=12

====

Assayed System: HIV-1 RT (Human immunodeficiency virus type 1 group M subtype B, UniProt P03366)
Construct: made in house; host or cells: Escherichia coli
Assay Remarks: Anti-HIV-1 RT assay (recombinant enzyme)
Format: biochemical
Recorded Conditions: values in parentheses or in words; read-out: Anti-HIV-1 RT IC50
Readout Kind: IC50 (µM)

compound="O=C1C[C@@H](c2ccc(O)c(O)c2)Oc2c1c(O)cc(O)c2[C@H]1C(=O)c2c(O)cc(O)cc2O[C@@H]1c1ccc(O)cc1 [GB-2a(16), GB-2a]" readout_kind=IC50 data_value=170

====

Assay Remarks: Cytotoxicity by neutral red dye uptake, MA-104 cells
Recorded Conditions: African green monkey, Neutral Red IC50 (cytotoxic), Respiratory Syncytial Virus test
Entries and their IC50
Readout Kind: IC50

molecule="O=C1CC(c2ccc(O)cc2)Oc2cc(O)c(-c3c(O)cc4c(c3O)C(=O)CC(c3ccc(O)cc3)O4)c(O)c21 (stereo not shown) [Succedaneaflavanone (11), succedaneaflavanone]" data_value="~10 µg/mL"
molecule="O=C1CC(c2ccc(O)cc2)Oc2cc(O)c(-c3c(O)cc(O)c4c3OC(c3ccc(O)cc3)CC4=O)c(O)c21 (stereo not shown) [Rhusflavanone (9), rhusflavanone]" data_value="20 µg/mL"
molecule="O=c1cc(-c2ccc(O)c(-c3c(O)cc4oc(-c5ccc(O)cc5)cc(=O)c4c3O)c2)oc2cc(O)cc(O)c12 [Robustaflavone (3), robustaflavone]" data_value="~100 µg/mL"
molecule="COc1ccc(-c2cc(=O)c3c(OC)cc(OC)c(C4C(=O)c5c(OC)cc(OC)cc5OC4c4ccc(OC)cc4)c3o2)cc1 (stereo not shown) [Volkensiflavone hexamethyl ether (6), volkensiflavone hexamethyl ether]" data_value="~59 µg/mL"

====

Entries and their SI (CC50/EC90), HBV Virion
Tested on: Hepatitis B Virus (HBV)
Assay Remarks: Inhibition of HBV replication in 2.2.15 cells, extracellular (virion) HBV DNA;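 also: extracellular virion HBV DNA in culture medium measured by slot blot hybridization with a 32P-labeled HBV probe, quantified against HBV DNA standards, after 9 days of daily dosing, compared with day 0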
Recorded Conditions: selective index
Structures can show the parent of a compound that is named as a salt.
Readout Kind: SI (CC50/EC90), HBV Virion

compound="O=c1cc(-c2ccc(O)c(-c3c(O)cc4oc(-c5ccc(O)cc5)cc(=O)c4c3O)c2)oc2cc(O)cc(O)c12 [Robustaflavone sodium salt, Robustaflavone tetrasodium salt]" lt_gt_eq== data_value=88
compound="COc1ccc(-c2cc(=O)c3c(OC)cc(OC)c(C4C(=O)c5c(OC)cc(OC)cc5OC4c4ccc(OC)cc4)c3o2)cc1 (centres unmarked) [Volkensiflavone hexamethyl ether (6), volkensiflavone hexamethyl ether]" lt_gt_eq== data_value=1.3
compound="Nc1ccn([C@H]2CC[C@@H](CO)O2)c(=O)n1 [2′,3′-ddC, 2′,3′-dideoxycytosine, reference compound]" lt_gt_eq== data_value=28
compound="COc1ccc(-c2cc(=O)c3c(OC)c(-c4cc(-c5cc(=O)c6c(OC)cc(OC)cc6o5)ccc4OC)c(OC)cc3o2)cc1 [Robustaflavone hexamethyl ether, hexa-O-methylrobustaflavone]" lt_gt_eq=> data_value=36
compound="CC(=O)Oc1ccc([C@@H]2CC(=O)c3c(cc(OC(C)=O)c(-c4c(OC(C)=O)cc5c(c4OC(C)=O)C(=O)C[C@@H](c4ccc(OC(C)=O)cc4)O5)c3OC(C)=O)O2)cc1 [Succedaneaflavanone hexaacetate (12), succedaneaflavanone hexaacetate]" lt_gt_eq== data_value=1.9
